Tested on: UACC-257 melanoma
assayOverview: NCI-60 one-dose screen, 48 h
runConditions: 10 µM unless noted
About 83,000 compounds went through this panel and 20% of them were active in at least one assay; those are over-represented in the sample as a whole. Calls of active or inactive are those of the source. The calls were made as follows: active = growth percent below 10; inactive = the rest.
Outcome codes: active, inactive

COc1ccc(/C=C/C(=O)c2ccc(NC(=O)CSc3nc4c([nH]3)c(=O)n(C)c(=O)n4C)cc2)cc1OC; inactive
C=C1C(=O)O[C@H]2[C@H]1CC/C(COC(=O)c1cc3cc(Cl)ccc3[nH]1)=C\CC[C@@]1(C)O[C@@H]21; active
O=C(CC(=O)Nc1cccc(C(=O)O)c1)Nc1cccc(C(=O)O)c1; inactive
C/C(=N\O)c1ccc(NC(=O)CSc2nnc(-c3cc(-c4ccc(S(N)(=O)=O)cc4)nc4ccccc34)n2-c2ccccc2)cc1; inactive
COc1cccc(C(=O)NNc2nc(Cl)nc(Cl)n2)c1; inactive
CNC(=O)c1cc(Oc2cccc3nc(NC(=O)Nc4cc(C(F)(F)F)ccc4Cl)ccc23)ccn1; inactive
O=C(Nc1ncc(Cc2cc(C(F)(F)F)ccc2Cl)s1)c1cccs1; inactive
Clc1ccc(-c2cc(-c3ccccc3)nc(NCCNc3ccnc4cc(Cl)ccc34)n2)cc1; inactive
O=C(O)/C=C/C(=O)Nc1cccc(Cn2nnc3cc(Cl)c(Cl)cc32)c1; inactive
COc1ccc(/C=C/C(=O)c2cc3c(N)c(C(=O)Nc4cccc(Cl)c4C)sc3nc2C)cc1; inactive

* * *

Recorded measurements of growth, one per entry
System: NCI-H460 lung
assayOverview: NCI-60 one-dose screen, 48 h (100 = growth as untreated, 0 = no growth, -100 = all killed)
runConditions: 10 µM unless noted
Experimental: Growth inhibition of the NCI-H460 human Non-Small Cell Lung tumor cell line is measured as a screen for anti-cancer activity. Cells are grown in 96 well plates and exposed to the test compound for 48 hours. Compounds are tested at a single concentration, which is 10^-5 M for most compounds. The reported endpoint is percent growth (GI% or GIPRCNT), where numbers from 0 - 100% represent growth inhibition, and numbers from -100% - 0 represent cell death. […]
This is part of a sample that, as a whole, favours compounds with a hit. Of some 83,000 tested, about 20% had one in any assay. Calls of active or inactive are those of the source. Rule for the calls: active = growth percent below 10; inactive = the rest.
valueType: growth

COc1cc(/C=C/C(=O)/C=C(O)/C=C/c2ccc(OC(=O)C34CC5CC(CC(C5)C3)C4)c(OC)c2)ccc1OC(=O)C12CC3CC(CC(C3)C1)C2; 108% (inactive)
N#Cc1nc(-c2ccccc2)oc1S(=O)(=O)N1CCN(c2ccc(F)cc2)CC1; 102% (inactive)
Cc1ccc2nc(/C(C#N)=C(/CCCO)NC(Cc3ccccc3)C(=O)OCc3ccccc3)[nH]c(=O)c2c1 (stereo not drawn); 110% (inactive)

* * *

Tested on: SF-268 CNS
assayOverview: NCI-60 one-dose screen, 48 h (100 = growth as untreated, 0 = no growth, -100 = all killed)
runConditions: 10 µM unless noted
The panel holds about 83,000 compounds, 20% with a hit somewhere; the sample as a whole holds those more often.
Recorded measurements of growth, one per entry
valueType: growth (%)

Cc1c(CC(=S)N2CCOCC2)nnn1-c1cccc(C(F)(F)F)c1; 97.7
C=C(C)[C@@H]1CC[C@]2(C(=O)N3CCN(C)CC3)CC[C@]3(C)[C@H](CC[C@@H]4[C@@]5(C)CC[C@H](OC(=O)c6ccccc6C(=O)O)C(C)(C)[C@@H]5CC[C@]43C)[C@@H]12; 92.8
O=C(Nc1ncccc1OCc1ccccc1)NC1CCCCCC1; 92.3
CCN1C(=O)N(CC)C2C1N=C(SCc1ccc(Cl)cc1)N2/N=C/C=C/c1ccccc1OC (stereo not given); 64.5
Nc1nc(N)c2c(n1)NC(c1ccc(Cl)cc1)C1CCc3ccccc3C1=N2 (stereo not given); 72.3

* * *

Test system: CAKI-1 renal
assayOverview: NCI-60 one-dose screen, 48 h (100 = growth as untreated, 0 = no growth, -100 = all killed)
runConditions: 10 µM unless noted
This is part of a sample that, as a whole, favours compounds with a hit. Of some 83,000 tested, about 20% had one in any assay.
valueType: growth (%)

COc1ccc(-c2ccc(-c3ccc(C(=N)N)nc3)s2)cc1Cl; -90.2
Cc1ccc(-c2nc(/C=C3/C(=O)Nc4ccc(F)cc43)c3ccccn23)cc1; 60.5
CN(C)CCCC1(c2ccc(F)cc2)OCc2cc(-c3cc4ccccc4s3)ccc21 (stereo not given); 21.4
CCn1c(-c2cc3c([nH]c4ccccc43)c(-c3cccc(O)c3)n2)n[nH]c1=S; 47.9
CC(=C(c1ccc(OCCN2CCCCC2)cc1)c1ccc(OCCN2CCCCC2)cc1)c1ccc(Cl)cc1; -98.4

* * *

Test system: HCT-15 colon
assayOverview: NCI-60 one-dose screen, 48 h (100 = growth as untreated, 0 = no growth, -100 = all killed)
runConditions: 10 µM unless noted
About 83,000 compounds went through this panel and 20% of them were active in at least one assay; those are over-represented in the sample as a whole. Active and inactive are the calls of the source. How the source made its calls: active means growth percent below 10; inactive means the rest.
valueType: growth

CCN1CCN(CC(=O)Nc2ccc(-c3cn4c(n3)sc3cc(Oc5ccnc(C(=O)NC)c5)ccc34)cc2)CC1; 77.3% (inactive)
NC(N)=NS(=O)(=O)c1ccc(NC2=C(I)C(=O)c3ncccc3C2=O)cc1; 103% (inactive)
C=C(C)[C@@H]1CCC[C@]2(C(=O)O)CC[C@]3(C)[C@@H](CC[C@@H]4[C@@]5(C)C/C(=C/c6ccncc6)C(=O)C(C)(C)[C@@H]5CC[C@]43C)[C@@H]12; 5.49% (active)
Cc1ccc(C=C2C(=O)NC(=O)NC2=O)cc1; 104% (inactive)
Cc1ccc2nc(NC(=O)CSc3nc(-c4ccccc4)c(C#N)c4nnnn34)sc2c1; 113% (inactive)
CCN1C(=O)N(CC)C2Nn3c(s/c(=C\c4ccccc4Br)c3=O)=NC21 (stereo unspecified); 18.6% (inactive)

* * *

Tested on: SK-MEL-5 melanoma
assayOverview: NCI-60 one-dose screen, 48 h (100 = growth as untreated, 0 = no growth, -100 = all killed)
runConditions: 10 µM unless noted
The panel holds about 83,000 compounds, 20% with a hit somewhere; the sample as a whole holds those more often. Active and inactive are the calls of the source. How the source made its calls: active means growth percent below 10; inactive means the rest.
valueType: growth

CCc1ccc(CCC(=O)Nc2ncc(Cc3ccccc3)s2)o1; 42.8% (inactive)
Cn1cc(-c2ccc(-c3cn(C)c4ccc(Cl)cc34)[nH]2)c2cc(Cl)ccc21; -98.6% (active)
Cc1cccc(Oc2ccc(Nc3ncnc4ccc(NC(=O)CN5CCN(C)CC5)cc34)cc2Cl)c1; -76.7% (active)
Cc1ccc(-c2csc(NC(=O)c3ccccc3CN3C(=O)c4ccccc4C3=O)n2)cc1; 95.5% (inactive)
CCN(CC)Cc1cc(Nc2ccnc3cc(Cl)ccc23)ccc1O; 96.7% (inactive)
CCOC(=O)c1c(C)c2c(n1Cc1ccccc1)CSCC2=O; -86.5% [100 µM] (active)
N[C@H]1CCC[C@@H]1NCCCCN1C(=O)c2cccc3cc([N+](=O)[O-])cc(c23)C1=O; 70.2% (inactive)
N#Cc1nc(-c2ccccc2)oc1S(=O)(=O)N1CCN(c2ccc(F)cc2)CC1; 86.1% (inactive)
COc1ccc(C2=CC(c3cc(OC)c(OC)c(OC)c3)n3ncnc3N2)cc1 (centres undefined); 1.68% (active)

* * *

Test system: RPMI-8226 leukemia
assayOverview: NCI-60 one-dose screen, 48 h
runConditions: 10 µM unless noted
Compounds without any hit were thinned out: in the full panel of roughly 83,000, 20% have a hit. Active and inactive are the calls of the source. How the source made its calls: active means growth percent below 10; inactive means the rest.
Outcome codes: 1 = active, 0 = inactive

COc1cc(C(=O)c2c(-c3ccccc3)oc3c(OC)cccc23)cc(OC)c1OC; 0
COc1cc(-c2nc3sccn3c2-c2ccnc(NCCNS(=O)(=O)c3ccc(Cl)cc3)n2)ccc1F; 1
CN(Cc1cc(Br)cc(Br)c1O)Cc1cc(Br)cc(Br)c1O; 0
COc1ccc(C2=NN(C(C)=O)C(c3cn(-c4ccccc4)nc3-c3ccc(Cl)cc3)C2)cc1 (configuration not stated); 0
Cc1ncc(C(=O)Nc2ccc(CN3CCN(C)CC3)c(C(F)(F)F)c2)cc1C#Cc1cnc(N)c2ncccc12; 1
N#C/C(=C\C=C\c1ccc(-c2cc(Cl)ccc2Cl)o1)c1nc2ccccc2s1; 0
O=S1(=O)C=C(c2ccccc2)C(c2ccccc2)=C1; 1
CN(C)CCCNC(=O)c1cncnc1Nc1ccc(OCc2cccc(F)c2)c(Cl)c1; 1
C=C1C(=O)O[C@H]2[C@H]1CC/C(COC(=O)CSCSCC(=O)OC/C1=C/CC[C@@]3(C)O[C@H]3[C@H]3OC(=O)C(=C)[C@@H]3CC1)=C\CC[C@@]1(C)O[C@@H]21; 1
NS(=O)(=O)c1ccc(NC(=O)/C(=C\c2ccc(Cl)cc2Cl)NC(=O)c2ccccc2)cc1; 0
COC(=O)CC[C@@H]1O[C@@H](c2ccc(F)cc2)[C@@H](O)[C@H]1O; 0
COCCn1cc(-c2csc(-c3c[nH]c4ccc(Br)cc34)n2)c2cccnc21; 0
O=C(Nc1ncc(Cc2ccccc2)s1)c1ccc2c(c1)OCCCO2; 0
N#CSc1c[nH]c2cccc(/C=C/C(=O)/C=C(O)/C=C/c3cccc4[nH]cc(SC#N)c34)c12; 1
Cc1nn(-c2cc(NC3CCC(O)CC3)c3c(=O)[nH]c(CCC(F)(F)F)cc3c2)c2c1C(=O)CC(C)(C)C2 (configuration not stated); 0
CN(C)S(=O)(=O)Oc1ccc(-c2sc3cc(OS(=O)(=O)N(C)C)ccc3c2C(=O)c2ccc(OCCN3CCCCC3)cc2)cc1; 0
Nc1c(C(=O)Nc2cccc(Cl)c2)sc2nc3c(cc12)CCCC3; 0
O=C(CC(=O)Nc1cccc(C(=O)O)c1)Nc1cccc(C(=O)O)c1; 0
O=C(CN1CCCCCC1)Nc1nc2ccc(NCc3ccc(Cl)cc3)cc2s1; 0
O=C(Nc1ccccc1N1CCCC1=O)c1oc2ccc(F)cc2c1-c1cnn(-c2ccccc2)c1; 0
O=C(O)c1ccc(-c2ccc(/C=N/Nc3nc(Nc4ccccc4)nc(N4CCCCC4)n3)o2)cc1; 0
S=c1[nH]c(=S)c2c(-c3ccccc3)c(-c3ccccc3)oc2[nH]1; 0
